Test System: T1, IL-12 (Human IL12 (His Tag)), Sino Biological Cat. No. CT-050-H08H-20 (human, UniProt P29460 23-328; P29459 23-219)
T1 construct: Bought His-tagged p35/p40 heterodimer
T1 sequence (looked up) 1: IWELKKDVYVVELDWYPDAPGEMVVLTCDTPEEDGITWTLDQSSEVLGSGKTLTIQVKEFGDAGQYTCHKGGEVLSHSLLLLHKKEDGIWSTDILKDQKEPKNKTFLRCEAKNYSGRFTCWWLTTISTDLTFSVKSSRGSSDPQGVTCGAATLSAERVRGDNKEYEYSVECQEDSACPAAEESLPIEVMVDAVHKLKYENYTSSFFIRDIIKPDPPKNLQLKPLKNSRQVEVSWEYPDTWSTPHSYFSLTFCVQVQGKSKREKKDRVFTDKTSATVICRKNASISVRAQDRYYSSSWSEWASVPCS
T1 sequence (looked up) 2: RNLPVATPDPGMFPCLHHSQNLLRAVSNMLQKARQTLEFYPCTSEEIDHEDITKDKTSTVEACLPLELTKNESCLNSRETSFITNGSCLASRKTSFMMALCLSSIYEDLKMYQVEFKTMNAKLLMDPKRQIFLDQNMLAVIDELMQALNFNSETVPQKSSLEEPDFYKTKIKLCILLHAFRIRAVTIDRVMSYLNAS
Method Notes: FACS competition, IL-12-His 20 nM on 293T-IL-12RB1&IL-23R cells, antibody 30 µg/mL
Form field: MFI (one value per entry).
Reply with just the number.

Known MFI results, listed for orientation:
1) H5L10 (antibody, human IgG1, kappa, V domains shown, IgG1/kappa) VH: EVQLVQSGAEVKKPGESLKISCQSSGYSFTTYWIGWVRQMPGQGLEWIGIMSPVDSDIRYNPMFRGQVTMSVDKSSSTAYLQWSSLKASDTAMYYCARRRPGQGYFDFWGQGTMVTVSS VL: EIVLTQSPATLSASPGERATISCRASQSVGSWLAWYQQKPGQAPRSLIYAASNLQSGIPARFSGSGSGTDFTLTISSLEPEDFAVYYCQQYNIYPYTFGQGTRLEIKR : 31.6
2) ustekinumab (trade name Stelara) (antibody, V domains shown) VH: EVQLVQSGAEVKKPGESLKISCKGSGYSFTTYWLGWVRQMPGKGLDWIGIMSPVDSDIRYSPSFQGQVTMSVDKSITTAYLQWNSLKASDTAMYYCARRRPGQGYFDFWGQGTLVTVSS VL: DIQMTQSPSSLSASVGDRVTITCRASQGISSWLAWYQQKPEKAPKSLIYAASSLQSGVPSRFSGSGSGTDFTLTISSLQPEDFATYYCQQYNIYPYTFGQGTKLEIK : 28.7

Consider the record given below.
input: What does the record list as MFI for H5L9 (antibody, human IgG1, kappa, V domains shown, Humanized anti-human IL-12/IL-23 p40 antibody; IgG1 (P01857) / kappa (P01834) constant regions) VH: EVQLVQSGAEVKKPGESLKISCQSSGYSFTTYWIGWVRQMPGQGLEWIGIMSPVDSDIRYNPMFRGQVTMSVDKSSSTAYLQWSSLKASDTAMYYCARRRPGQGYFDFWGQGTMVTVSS VL: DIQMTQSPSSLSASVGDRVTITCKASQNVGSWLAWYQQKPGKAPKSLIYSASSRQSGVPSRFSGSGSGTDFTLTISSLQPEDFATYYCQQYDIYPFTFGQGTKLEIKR ?
output: 117
